composite z-score: recorded values
- Test system: Inhibin beta A chain (activin A)
- TEST_DETAILS: INHBA (activin A) binders on microarrays, primary screen, biochemical, small-molecule microarray, 635 nm fluorescence scan (AID 1107);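 note: mouse activin A protein probed at 4.33 µg/mL on printed slides; score merges bound-protein fluorescence near 667 nm with spot signal-to-noise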
- CONDITION_CONTEXT: small-molecule microarray binding, higher = more signal

COMPOUND | composite z-score
COC(=O)[C@H](C)NC(=O)CCC1CC(OC(=O)NCCc2ccc(F)cc2)CC2(CCCC(COC(=O)NCCc3ccccc3OC)O2)O1 (stereo partly drawn) | 0.176
CO[C@H]1COC(=O)CCC[C@H](C)[C@@H](OC)COC(=O)CC=C[C@@H]1C | 0.691
CO[C@@H](C1CCCCC1)[C@@H](C)[C@H](OCc1cccc(Br)c1)[C@@H](C)CO | 0.247
CCOC(=O)[C@H](Cc1ccccc1)NC(=O)CCC1CC(OC(=O)NCc2cccc3ccccc23)CC2(CCCC(COC(=O)NCCc3ccccc3OC)O2)O1 (stereo partly drawn) | -0.251
CCOC(=O)CCN1C(=O)[C@H]2[C@@H]3C(=CC[C@H]2C1=O)C(=O)[C@H]1O[C@H]1[C@H]3O | -0.483
CSCC[C@@H]1NC(=O)CC=C[C@@H](C)COC(=O)[C@H](C)COC1=O | -2.83
CCOC(=O)CCN1C(=O)[C@H]2[C@H]3[C@H](O)[C@H](O)CC(=NOCC=C(C)CCC=C(C)C)[C@H]3CC[C@H]2C1=O | -1.82
Cc1ccc(C(C)C)n1C(=O)OC(C)(C)C | -0.124
